Give measured inhibition at 0.2 µM for each item. Keep answers brief.
target: Cannabinoid CB2 Receptor (Homo sapiens, UniProt P34972); construct: expressed in transfected cells; semi-purified membrane pellet; experiment: Binding assay, cannabinoid CB2 receptor ([3H]-CP-55,940 displacement, SK-N-MC cell membranes); conditions: test concentration of 0.2 μM; human CB2 in SK-N-MC membranes; read-out: Cannabinoid CB2 Receptor Binding, percent inhibition
Sequence (P34972 whole entry): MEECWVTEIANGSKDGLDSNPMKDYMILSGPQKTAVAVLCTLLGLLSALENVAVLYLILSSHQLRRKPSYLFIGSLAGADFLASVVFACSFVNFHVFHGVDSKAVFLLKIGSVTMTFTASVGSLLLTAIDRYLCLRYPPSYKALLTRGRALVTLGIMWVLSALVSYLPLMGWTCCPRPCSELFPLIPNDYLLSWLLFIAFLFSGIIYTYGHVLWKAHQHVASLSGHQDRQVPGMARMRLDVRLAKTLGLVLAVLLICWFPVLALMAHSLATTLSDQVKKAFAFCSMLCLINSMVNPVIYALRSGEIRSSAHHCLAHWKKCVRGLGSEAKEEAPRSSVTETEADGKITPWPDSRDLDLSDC
Entry rule: numbers only, all in %.

[ask] Which inhibition at 0.2 µM value belongs to C[C@@H](NC(=O)c1nn(-c2ccc(Cl)cc2Cl)c2c1COCC2Cc1ccc(F)cc1)c1ccccc1 (stereo partly shown) ?
[reply] 13

[ask] Which inhibition at 0.2 µM value belongs to C[C@@H](NC(=O)c1nn(-c2ccc(Cl)cc2Cl)c2c1COC/C2=C\c1ccsc1)c1ccccc1 ?
[reply] 21

[ask] Which inhibition at 0.2 µM value belongs to C[C@H](NC(=O)c1nn(-c2ccc(Cl)cc2Cl)c2c1COC/C2=C\c1ccc(Cl)s1)C1CCCCC1 ?
[reply] 2

[ask] Which inhibition at 0.2 µM value belongs to O=C(NNC1CCCCC1)c1nn(-c2ccc(Cl)cc2Cl)c2c1COC/C2=C\c1ccc(F)cc1 ?
[reply] 0

[ask] Which inhibition at 0.2 µM value belongs to C[C@@H](NC(=O)c1nn(-c2ccc(Cl)cc2Cl)c2c1COC/C2=C\c1ccc(Cl)s1)c1ccccc1 ?
[reply] 10

[ask] Which inhibition at 0.2 µM value belongs to O=C(NN1CCCCC1)c1nn(-c2ccc(Cl)cc2Cl)c2c1COC/C2=C\c1ccsc1 ?
[reply] 19

[ask] Which inhibition at 0.2 µM value belongs to CC1CCCC(C)N1NC(=O)c1nn(-c2ccc(Cl)cc2Cl)c2c1COC/C2=C\c1ccsc1 (stereo not shown) ?
[reply] 20

[ask] Which inhibition at 0.2 µM value belongs to CN1CCN(NC(=O)c2nn(-c3ccc(Cl)cc3Cl)c3c2COC/C3=C\c2ccc(F)cc2)CC1 ?
[reply] 0

[ask] Which inhibition at 0.2 µM value belongs to CC1CCCC(C)N1NC(=O)c1nn(-c2ccc(Cl)cc2Cl)c2c1COC/C2=C\c1ccc(F)cc1 (stereo not shown) ?
[reply] 20

[ask] Which inhibition at 0.2 µM value belongs to O=C(NN1CCCC1)c1nn(-c2ccc(Cl)cc2Cl)c2c1COC/C2=C\c1cccs1 ?
[reply] 7

[ask] Which inhibition at 0.2 µM value belongs to O=C(NN1CCN(CCO)CC1)c1nn(-c2ccc(Cl)cc2Cl)c2c1COC/C2=C\c1ccc(F)cc1 ?
[reply] 15

[ask] Which inhibition at 0.2 µM value belongs to CN(C(=O)c1nn(-c2ccc(Cl)cc2)c2c1COC/C2=C\c1ccc(F)cc1)c1ccccc1 ?
[reply] 7

[ask] Which inhibition at 0.2 µM value belongs to O=C(NN1CCCCC1)c1nn(-c2ccc(Cl)cc2Cl)c2c1COC/C2=C\c1cccs1 ?
[reply] 12

[ask] Which inhibition at 0.2 µM value belongs to O=C(N[C@H](CO)c1ccccc1)c1nn(-c2ccc(Cl)cc2Cl)c2c1COC/C2=C\c1ccc(Cl)s1 ?
[reply] 0

[ask] Which inhibition at 0.2 µM value belongs to O=C(NN1CCCC1)c1nn(-c2ccc(Cl)cc2Cl)c2c1COC/C2=C\c1ccc(F)cc1 ?
[reply] 0

[ask] Which inhibition at 0.2 µM value belongs to O=C(NN1CC2CCCC2C1)c1nn(-c2ccc(Cl)cc2Cl)c2c1COC/C2=C\c1ccsc1 (stereo not shown) ?
[reply] 19
